# System: Leishmania donovani
# experimental_protocol: Antileishmanial activity against promastigotes-based model of Leishmania donovani MHOM/SD/62/1S-CL2D assessed as growth inhibition by measuring metabolism of resazurin to resorufin by aerobic respiration at 50 uM measured after 3 days relative to control
# Format: functional
# condition_notes: 72 h, time 3 day
Criterion: inhibition at 50 µM meeting or surpassing 10%. Met: Criterion met. Not met: Criterion not met.

{"columns": ["structure_as_smiles", "label_class"],
 "data": [
  ["CCCCCCCC/C=C\\CCCCCCCCCCCCOP(=O)([O-])OCCC[N+](C)(C)C", "Criterion met"],
  ["Cc1c(C(=O)N[C@@H](Cc2ccccc2)C(=O)C(=O)NCc2ccccc2)[nH]c2ccccc2c1=O", "Criterion met"],
  ["COc1ccc(CCNC(=O)C(=O)[C@H](Cc2ccccc2)NC(=O)c2[nH]c3ccccc3c(=O)c2C)cc1", "Criterion met"],
  ["COc1ccc(CNC(=O)[C@H](O)[C@H](Cc2ccccc2)NC(=O)c2[nH]c3ccccc3c(=O)c2C)cc1OC", "Criterion met"],
  ["Cc1c(C(=O)N[C@@H](Cc2ccccc2)[C@@H](O)C(=O)NC(C)C)[nH]c2ccccc2c1=O", "Criterion not met"],
  ["COc1ccc(CCNC(=O)[C@H](O)[C@H](Cc2ccccc2)NC(=O)c2[nH]c3ccccc3c(=O)c2C)cc1", "Criterion met"],
  ["Cc1c(C(=O)N[C@@H](Cc2ccccc2)C(=O)C(=O)NCCc2ccccc2)nc2ccccc2c1O", "Criterion met"],
  ["Cc1c(C(=O)N[C@@H](Cc2ccccc2)[C@@H](O)C(=O)NCc2ccc(F)cc2)[nH]c2ccccc2c1=O", "Criterion not met"]
]}

* * *

# Test system: Leishmania donovani
# experimental_protocol: Antileishmanial activity against promastigotes-based model of Leishmania donovani MHOM/SD/62/1S-CL2D assessed as growth inhibition by measuring metabolism of resazurin to resorufin by aerobic respiration at 25 uM measured after 3 days relative to control
# Assay type: functional
# condition_notes: time 3.0 day
The source made the active and inactive calls. The calls are words filed in the database; no cut-off is given here.
measured_quantity: inhibition

{"columns": ["structure_as_smiles", "data_value"],
 "data": [
  ["CCNC(=O)C(=O)[C@H](Cc1ccccc1)NC(=O)c1[nH]c2ccccc2c(=O)c1C", "inactive"],
  ["COc1ccc(CNC(=O)C(=O)[C@H](Cc2ccccc2)NC(=O)c2[nH]c3ccccc3c(=O)c2C)cc1", "inactive"],
  ["COc1ccc(CCNC(=O)[C@H](O)[C@H](Cc2ccccc2)NC(=O)c2[nH]c3ccccc3c(=O)c2C)cc1", "inactive"],
  ["CNC(=O)C(=O)[C@H](Cc1ccccc1)NC(=O)c1[nH]c2ccccc2c(=O)c1C", "inactive"],
  ["Cc1c(C(=O)N[C@@H](Cc2ccccc2)[C@@H](O)C(=O)NCc2ccccn2)[nH]c2ccccc2c1=O", "inactive"],
  ["COc1ccc(CNC(=O)[C@H](O)[C@H](Cc2ccccc2)NC(=O)c2[nH]c3ccccc3c(=O)c2C)cc1OC", "inactive"],
  ["CCNC(=O)[C@H](O)[C@H](Cc1ccccc1)NC(=O)c1[nH]c2ccccc2c(=O)c1C", "inactive"],
  ["COc1ccc(CNC(=O)C(=O)[C@H](Cc2ccccc2)NC(=O)c2[nH]c3ccccc3c(=O)c2C)cc1OC", "inactive"],
  ["Cc1c(C(=O)N[C@@H](Cc2ccccc2)C(=O)C(N)=O)[nH]c2ccccc2c1=O", "inactive"],
  ["Cc1c(C(=O)N[C@@H](Cc2ccccc2)C(=O)C(=O)NCc2ccc(F)cc2)[nH]c2ccccc2c1=O", "inactive"],
  ["Cc1c(C(=O)N[C@@H](Cc2ccccc2)C(=O)C(=O)NCCc2ccccn2)[nH]c2ccccc2c1=O", "inactive"],
  ["Cc1c(C(=O)N[C@@H](Cc2ccccc2)[C@@H](O)C(=O)NC(C)C)[nH]c2ccccc2c1=O", "inactive"],
  ["COc1ccc(CCNC(=O)C(=O)[C@H](Cc2ccccc2)NC(=O)c2[nH]c3ccccc3c(=O)c2C)cc1", "inactive"],
  ["COc1ccc(CNC(=O)[C@H](O)[C@H](Cc2ccccc2)NC(=O)c2[nH]c3ccccc3c(=O)c2C)cc1", "inactive"],
  ["Cc1c(C(=O)N[C@@H](Cc2ccccc2)C(=O)C(=O)NC(C)C)[nH]c2ccccc2c1=O", "inactive"],
  ["Cc1c(C(=O)N[C@@H](Cc2ccccc2)[C@@H](O)C(=O)NCc2ccc(F)cc2)[nH]c2ccccc2c1=O", "inactive"],
  ["Cc1c(C(=O)N[C@@H](Cc2ccccc2)C(=O)C(=O)NCc2ccccn2)[nH]c2ccccc2c1=O", "inactive"],
  ["Cc1c(C(=O)N[C@@H](Cc2ccccc2)[C@@H](O)C(=O)NCCc2ccccc2)[nH]c2ccccc2c1=O", "inactive"]
]}
